Entry source: patent US8598344B2

# target.desc: CLK2 (Homo sapiens)
# Construct: purchased KinomeScan, a division of Ambit Biosciences
# Sequence (P49760 whole entry): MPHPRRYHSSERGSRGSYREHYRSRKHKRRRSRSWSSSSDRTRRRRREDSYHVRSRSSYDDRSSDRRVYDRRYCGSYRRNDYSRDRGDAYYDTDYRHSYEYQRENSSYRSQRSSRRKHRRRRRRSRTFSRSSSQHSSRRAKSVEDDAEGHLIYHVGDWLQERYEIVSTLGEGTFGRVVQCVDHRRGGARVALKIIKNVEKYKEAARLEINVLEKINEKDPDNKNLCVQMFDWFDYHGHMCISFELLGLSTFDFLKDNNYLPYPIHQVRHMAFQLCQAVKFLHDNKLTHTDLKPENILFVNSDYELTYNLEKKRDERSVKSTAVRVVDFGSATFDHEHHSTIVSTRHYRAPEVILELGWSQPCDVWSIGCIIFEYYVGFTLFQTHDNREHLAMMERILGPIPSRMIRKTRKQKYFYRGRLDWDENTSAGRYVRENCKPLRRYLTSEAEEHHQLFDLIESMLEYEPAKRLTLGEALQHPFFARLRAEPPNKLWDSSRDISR
# procedure.text: KinomeScan competition binding assay
# test.conditions: 10 μM compound

| molecule | units.label | POC ligand binding, CLK2 |
| --- | --- | --- |
| N#Cc1ccc2ncnc(NCc3ccc(Cl)cc3)c2c1 [compound 20] | POC | 16 |
| CCCNc1ncnc2ccc(N3CCOCC3)cc12 [compound 46] | POC | 66 |
| N#Cc1ccc2ncnc(NCCc3ccccc3)c2c1 [compound 1] | POC | 3.8 |
| COc1ccc2ncnc(NCCc3ccccc3)c2c1 [compound 44] | POC | 34 |
| CC(C)CNc1ncnc2ccc(C(F)(F)F)cc12 [compound 45] | POC | 8.6 |
| N#Cc1ccc2ncnc(NCCc3ccc4ccccc4c3)c2c1 [compound 26] | POC | 58 |

---

# target.desc: HIPK2 (Homo sapiens)
# Construct: purchased KinomeScan, a division of Ambit Biosciences
# Sequence (Q9H2X6 whole entry): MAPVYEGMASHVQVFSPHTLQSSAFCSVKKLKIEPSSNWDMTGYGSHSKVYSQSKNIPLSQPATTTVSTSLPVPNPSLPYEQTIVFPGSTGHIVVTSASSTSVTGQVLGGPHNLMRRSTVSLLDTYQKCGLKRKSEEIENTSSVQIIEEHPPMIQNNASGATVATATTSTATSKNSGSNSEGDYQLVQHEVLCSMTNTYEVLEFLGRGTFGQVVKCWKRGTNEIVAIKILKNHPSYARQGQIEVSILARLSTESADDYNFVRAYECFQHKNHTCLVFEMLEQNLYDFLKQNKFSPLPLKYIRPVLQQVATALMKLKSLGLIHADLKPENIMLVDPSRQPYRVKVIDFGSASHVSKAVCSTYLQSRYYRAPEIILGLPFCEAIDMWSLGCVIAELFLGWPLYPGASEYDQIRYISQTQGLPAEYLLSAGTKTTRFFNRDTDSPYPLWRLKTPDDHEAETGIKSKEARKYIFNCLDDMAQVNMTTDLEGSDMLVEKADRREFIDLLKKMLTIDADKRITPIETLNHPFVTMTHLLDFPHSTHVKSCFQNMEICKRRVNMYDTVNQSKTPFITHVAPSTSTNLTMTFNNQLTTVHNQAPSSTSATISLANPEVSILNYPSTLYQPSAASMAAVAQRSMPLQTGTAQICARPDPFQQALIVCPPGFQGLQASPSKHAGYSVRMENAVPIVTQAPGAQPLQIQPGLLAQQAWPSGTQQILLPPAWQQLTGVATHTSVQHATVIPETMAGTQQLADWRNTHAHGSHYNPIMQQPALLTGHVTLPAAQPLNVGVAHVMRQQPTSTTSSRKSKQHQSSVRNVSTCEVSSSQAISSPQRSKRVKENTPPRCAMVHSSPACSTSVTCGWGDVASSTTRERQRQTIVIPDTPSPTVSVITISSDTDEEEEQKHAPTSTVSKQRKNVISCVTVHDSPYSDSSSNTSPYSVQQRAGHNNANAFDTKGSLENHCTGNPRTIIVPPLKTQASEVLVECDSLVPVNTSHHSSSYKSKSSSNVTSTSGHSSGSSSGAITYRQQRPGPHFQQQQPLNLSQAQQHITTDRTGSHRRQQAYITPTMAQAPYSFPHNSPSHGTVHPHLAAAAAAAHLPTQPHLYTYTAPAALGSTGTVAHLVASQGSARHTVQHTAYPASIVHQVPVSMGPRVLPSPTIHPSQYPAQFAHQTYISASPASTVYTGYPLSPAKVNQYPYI
# procedure.text: KinomeScan competition binding assay
# test.conditions: 10 μM compound
Returns one of true (1) or false (0); true (1) when POC ligand binding, HIPK2 is >= 30 POC.

| line.notation | qualitative.label |
| --- | --- |
| N#Cc1ccc2ncnc(NCCc3ccc4ccccc4c3)c2c1 | true (1) |
| N#Cc1ccc2ncnc(NCCc3ccccc3)c2c1 | false (0) |
| COc1ccc2ncnc(NCCc3ccccc3)c2c1 | true (1) |
| N#Cc1ccc2ncnc(NCc3ccc(Cl)cc3)c2c1 | false (0) |
| CC(C)CNc1ncnc2ccc(C(F)(F)F)cc12 | false (0) |

---

Each item that follows carries a reported POC ligand binding, CSNK1G2.
# target.desc: CSNK1G2 (Homo sapiens, UniProt P78368)
# Construct: purchased KinomeScan, a division of Ambit Biosciences
# Sequence (P78368 whole entry): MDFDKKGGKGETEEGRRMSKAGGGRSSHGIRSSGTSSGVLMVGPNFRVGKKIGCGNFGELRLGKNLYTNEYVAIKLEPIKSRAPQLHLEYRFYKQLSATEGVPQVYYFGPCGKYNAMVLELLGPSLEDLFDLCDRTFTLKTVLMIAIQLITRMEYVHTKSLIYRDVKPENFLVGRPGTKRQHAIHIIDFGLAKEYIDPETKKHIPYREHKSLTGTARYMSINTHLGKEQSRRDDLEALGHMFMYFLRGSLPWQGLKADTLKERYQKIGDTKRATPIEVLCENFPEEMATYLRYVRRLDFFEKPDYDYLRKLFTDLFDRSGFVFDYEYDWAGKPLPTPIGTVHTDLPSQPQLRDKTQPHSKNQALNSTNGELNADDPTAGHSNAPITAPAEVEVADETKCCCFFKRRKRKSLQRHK
# procedure.text: KinomeScan competition binding assay
# test.conditions: 10 μM compound

| line.notation | POC ligand binding, CSNK1G2 (POC) |
| --- | --- |
| CCCNc1ncnc2ccc(N3CCOCC3)cc12 | 55 |
| COc1ccc2ncnc(NCCc3ccccc3)c2c1 | 80 |
| CC(C)CNc1ncnc2ccc(C(F)(F)F)cc12 | 53 |
| N#Cc1ccc2ncnc(NCCc3ccccc3)c2c1 | 16 |
| N#Cc1ccc2ncnc(NCc3ccc(Cl)cc3)c2c1 | 62 |
| N#Cc1ccc2ncnc(NCCc3ccc4ccccc4c3)c2c1 | 57 |

---

# target.desc: YSK4 (Homo sapiens)
# Construct: purchased KinomeScan, a division of Ambit Biosciences
# Sequence (Q56UN5 1-1328): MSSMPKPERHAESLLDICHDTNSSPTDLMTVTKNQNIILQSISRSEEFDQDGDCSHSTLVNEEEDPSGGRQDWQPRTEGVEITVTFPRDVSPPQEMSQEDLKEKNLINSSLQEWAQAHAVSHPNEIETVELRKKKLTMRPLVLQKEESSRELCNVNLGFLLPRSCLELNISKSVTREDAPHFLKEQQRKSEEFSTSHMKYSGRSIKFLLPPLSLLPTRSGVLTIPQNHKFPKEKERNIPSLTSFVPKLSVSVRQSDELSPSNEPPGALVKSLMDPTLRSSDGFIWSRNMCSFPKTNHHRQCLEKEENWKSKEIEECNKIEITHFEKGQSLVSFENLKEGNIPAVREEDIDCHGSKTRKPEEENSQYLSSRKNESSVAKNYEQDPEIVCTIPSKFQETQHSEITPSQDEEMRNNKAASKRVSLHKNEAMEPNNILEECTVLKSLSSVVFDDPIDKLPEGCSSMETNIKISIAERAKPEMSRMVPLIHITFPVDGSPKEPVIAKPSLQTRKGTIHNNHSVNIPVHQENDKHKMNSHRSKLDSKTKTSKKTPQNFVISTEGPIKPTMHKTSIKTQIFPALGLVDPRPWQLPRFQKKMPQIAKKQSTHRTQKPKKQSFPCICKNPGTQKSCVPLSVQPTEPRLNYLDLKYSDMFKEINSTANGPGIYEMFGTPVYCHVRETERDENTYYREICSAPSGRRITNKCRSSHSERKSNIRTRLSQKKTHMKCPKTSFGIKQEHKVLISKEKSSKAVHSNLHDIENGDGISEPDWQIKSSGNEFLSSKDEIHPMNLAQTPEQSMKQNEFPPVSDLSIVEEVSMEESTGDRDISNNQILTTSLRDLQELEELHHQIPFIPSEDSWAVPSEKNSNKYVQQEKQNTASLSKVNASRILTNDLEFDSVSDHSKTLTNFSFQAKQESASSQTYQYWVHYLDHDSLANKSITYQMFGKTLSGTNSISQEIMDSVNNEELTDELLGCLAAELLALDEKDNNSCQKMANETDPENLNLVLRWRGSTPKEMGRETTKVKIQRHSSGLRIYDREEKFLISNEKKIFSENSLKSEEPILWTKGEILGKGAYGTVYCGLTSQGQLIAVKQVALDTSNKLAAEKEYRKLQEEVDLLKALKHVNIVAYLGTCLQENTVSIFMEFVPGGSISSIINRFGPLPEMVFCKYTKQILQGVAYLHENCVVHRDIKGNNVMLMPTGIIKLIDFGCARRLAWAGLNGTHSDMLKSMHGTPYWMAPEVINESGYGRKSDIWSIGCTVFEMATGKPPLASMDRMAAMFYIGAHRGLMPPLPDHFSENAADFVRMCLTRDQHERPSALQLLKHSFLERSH
# procedure.text: KinomeScan competition binding assay
# test.conditions: 10 μM compound
Each item that follows carries a reported POC ligand binding, YSK4.

| line.notation | POC ligand binding, YSK4 (POC) |
| --- | --- |
| N#Cc1ccc2ncnc(NCc3ccc(Cl)cc3)c2c1 | 31 |
| CC(C)CNc1ncnc2ccc(C(F)(F)F)cc12 | 41 |
| N#Cc1ccc2ncnc(NCCc3ccc4ccccc4c3)c2c1 | 44 |
| CCCNc1ncnc2ccc(N3CCOCC3)cc12 | 91 |
| COc1ccc2ncnc(NCCc3ccccc3)c2c1 | 39 |
| N#Cc1ccc2ncnc(NCCc3ccccc3)c2c1 | 5.4 |
